# System: Escherichia coli ATCC 25922
observable: MIC (µg/mL)
Give just the numeric value; µg/mL need not be written.

See these solved cases before continuing.
compound	MIC / µg/mL
CC[C@H]1OC(=O)[C@H](C)[C@@H](O[C@H]2C[C@@](C)(OC)[C@@H](O)[C@H](C)O2)[C@H](C)[C@@H](O[C@@H]2O[C@H](C)C[C@H](N(C)C)[C@H]2O)[C@](C)(OC)C[C@@H](C)C(=O)[C@H](C)[C@@H](O)[C@]1(C)O [Clarithromycin, reference compound]	64
CC[C@H]1OC(=O)[C@H](C)[C@@H](O[C@H]2C[C@@](C)(OC)[C@@H](O)[C@H](C)O2)[C@H](C)[C@@H](O[C@@H]2O[C@H](C)C[C@H](N(C)C)[C@H]2O)[C@](C)(O)C[C@@H](C)/C(=N\OCCNCCCCCCNCc2ccc(O)cc2)[C@H](C)[C@@H](O)[C@]1(C)O	16

Shifting focus to the compound that follows.
Task: Provide the documented MIC with Escherichia coli ATCC 25922 as the system for CC[C@H]1OC(=O)[C@H](C)[C@@H](O[C@H]2C[C@@](C)(OC)[C@@H](O)[C@H](C)O2)[C@H](C)[C@@H](O[C@@H]2O[C@H](C)C[C@H](N(C)C)[C@H]2O)[C@](C)(O)C[C@@H](C)/C(=N\OCCNCCCCCCCCNCc2ccccc2)[C@H](C)[C@@H](O)[C@]1(C)O
Output: 4

* * *

# Test system: Streptococcus pneumoniae BS 4
# test.name: In vitro antibacterial activity, MIC, broth microdilution
# Assay type: cell-based
# condition.context: Streptococcus pneumoniae, BS4; S. pneumoniae BS 4; MHB + 5% horse serum; 37° C., 18 hours; read-out: minimum inhibiting concentration MIC
Under this convention, MET denotes MIC strictly below 0.02 µg/mL and NOT MET denotes MIC at or above 0.02 µg/mL.

Example results:
molecule	assigned.category
CC[C@H]1OC(=O)[C@H](C)[C@@H](O[C@H]2C[C@@](C)(OC)[C@@H](O)[C@H](C)O2)[C@H](C)[C@@H](O[C@@H]2O[C@H](C)C[C@H](N(C)C)[C@H]2O)[C@](C)(O)C[C@@H](C)/C(=N\OCCCCCCNCCCCCCNCc2ccccc2)[C@H](C)[C@@H](O)[C@]1(C)O	NOT MET
CC[C@H]1OC(=O)[C@H](C)[C@@H](O[C@H]2C[C@@](C)(OC)[C@@H](O)[C@H](C)O2)[C@H](C)[C@@H](O[C@@H]2O[C@H](C)C[C@H](N(C)C)[C@H]2O)[C@](C)(O)C[C@@H](C)/C(=N\OCCNCCCCCCNCc2ccc(Oc3ccccc3)cc2)[C@H](C)[C@@H](O)[C@]1(C)O	MET
CC[C@H]1OC(=O)[C@H](C)[C@@H](O[C@H]2C[C@@](C)(OC)[C@@H](O)[C@H](C)O2)[C@H](C)[C@@H](O[C@@H]2O[C@H](C)C[C@H](N(C)C)[C@H]2O)[C@](C)(O)C[C@@H](C)/C(=N\OCCCNCCCCCCNCc2ccccc2)[C@H](C)[C@@H](O)[C@]1(C)O	NOT MET
CC[C@H]1OC(=O)[C@H](C)[C@@H](O[C@H]2C[C@@](C)(OC)[C@@H](O)[C@H](C)O2)[C@H](C)[C@@H](O[C@@H]2O[C@H](C)C[C@H](N(C)C)[C@H]2O)[C@](C)(OC)C[C@@H](C)C(=O)[C@H](C)[C@@H](O)[C@]1(C)O [Clarithromycin, reference compound]	MET
CC[C@H]1OC(=O)[C@H](C)[C@@H](O[C@H]2C[C@@](C)(OC)[C@@H](O)[C@H](C)O2)[C@H](C)[C@@H](O[C@@H]2O[C@H](C)C[C@H](N(C)C)[C@H]2O)[C@](C)(O)C[C@@H](C)/C(=N\OCCNCCCCCCNCc2ccccc2[N+](=O)[O-])[C@H](C)[C@@H](O)[C@]1(C)O	MET
CC[C@H]1OC(=O)[C@H](C)[C@@H](O[C@H]2C[C@@](C)(OC)[C@@H](O)[C@H](C)O2)[C@H](C)[C@@H](O[C@@H]2O[C@H](C)C[C@H](N(C)C)[C@H]2O)[C@](C)(O)C[C@@H](C)/C(=N\OCCNCCCCCCNCc2ccc(-c3ccccc3)cc2)[C@H](C)[C@@H](O)[C@]1(C)O	MET

Then there is this molecule:
Task: Field: below-cutoff. Rule: recorded MIC strictly less than 0.02 µg/mL. Subject: CC[C@H]1OC(=O)[C@H](C)[C@@H](O[C@H]2C[C@@](C)(OC)[C@@H](O)[C@H](C)O2)[C@H](C)[C@@H](O[C@@H]2O[C@H](C)C[C@H](N(C)C)[C@H]2O)[C@](C)(O)C[C@@H](C)/C(=N\OCCNCCCCCCNCc2ccc(C(F)(F)F)cc2)[C@H](C)[C@@H](O)[C@]1(C)O
Output: MET

* * *

# Tested on: Streptococcus pyogenes C 203
# test.name: In vitro antibacterial activity, MIC, broth microdilution
# Assay type: cell-based
# condition.context: Streptococcus pyogenes, C203; S. pyogenes C 203; MHB + 5% horse serum; 37° C., 18 hours; read-out: minimum inhibiting concentration MIC
# maps each entry to its MIC
Give just the numeric value; ng/mL need not be written.

Task: MIC for CC[C@H]1OC(=O)[C@H](C)[C@@H](O[C@H]2C[C@@](C)(OC)[C@@H](O)[C@H](C)O2)[C@H](C)[C@@H](O[C@@H]2O[C@H](C)C[C@H](N(C)C)[C@H]2O)[C@](C)(O)C[C@@H](C)/C(=N\OCCNCCCCCCNCc2ccccc2[N+](=O)[O-])[C@H](C)[C@@H](O)[C@]1(C)O [Compound 33] ?
Output: 0.97

Task: MIC for CCCCOc1ccc(CNCCCCCCNCCO/N=C2\[C@H](C)C[C@@](C)(O)[C@H](O[C@@H]3O[C@H](C)C[C@H](N(C)C)[C@H]3O)[C@@H](C)[C@H](O[C@H]3C[C@@](C)(OC)[C@@H](O)[C@H](C)O3)[C@@H](C)C(=O)O[C@H](CC)[C@@](C)(O)[C@H](O)[C@H]2C)cc1 [Compound 26] ?
Output: 7.8

Task: MIC for CC[C@H]1OC(=O)[C@H](C)[C@@H](O[C@H]2C[C@@](C)(OC)[C@@H](O)[C@H](C)O2)[C@H](C)[C@@H](O[C@@H]2O[C@H](C)C[C@H](N(C)C)[C@H]2O)[C@](C)(O)C[C@@H](C)/C(=N\OCCNCCCCCCNCc2cccc(O)c2)[C@H](C)[C@@H](O)[C@]1(C)O [Compound 25] ?
Output: 31.2

* * *

Recorded below: MIC, system Escherichia coli ATCC 25922.
Give just the numeric value; µg/mL need not be written.

CC[C@H]1OC(=O)[C@H](C)[C@@H](O[C@H]2C[C@@](C)(OC)[C@@H](O)[C@H](C)O2)[C@H](C)[C@@H](O[C@@H]2O[C@H](C)C[C@H](N(C)C)[C@H]2O)[C@](C)(O)C[C@@H](C)/C(=N\OCCNCCCCCCNCc2ccccc2)[C@H](C)[C@@H](O)[C@]1(C)O 4

Task: MIC for CC[C@H]1OC(=O)[C@H](C)[C@@H](O[C@H]2C[C@@](C)(OC)[C@@H](O)[C@H](C)O2)[C@H](C)[C@@H](O[C@@H]2O[C@H](C)C[C@H](N(C)C)[C@H]2O)[C@](C)(O)C[C@@H](C)/C(=N\OCCNCCCCCCNCc2ccc(O)c([N+](=O)[O-])c2)[C@H](C)[C@@H](O)[C@]1(C)O ?
Output: 8

Task: MIC for CC[C@H]1OC(=O)[C@H](C)[C@@H](O[C@H]2C[C@@](C)(OC)[C@@H](O)[C@H](C)O2)[C@H](C)[C@@H](O[C@@H]2O[C@H](C)C[C@H](N(C)C)[C@H]2O)[C@](C)(O)C[C@@H](C)/C(=N\OCCNCCCCCCNCc2ccc(OC)cc2)[C@H](C)[C@@H](O)[C@]1(C)O ?
Output: 4

Task: MIC for CC[C@H]1OC(=O)[C@H](C)[C@@H](O[C@H]2C[C@@](C)(OC)[C@@H](O)[C@H](C)O2)[C@H](C)[C@@H](O[C@@H]2O[C@H](C)C[C@H](N(C)C)[C@H]2O)[C@](C)(O)C[C@@H](C)/C(=N\OCCNCCCCCCNCc2ccccc2O)[C@H](C)[C@@H](O)[C@]1(C)O ?
Output: 4

Task: MIC for CC[C@H]1OC(=O)[C@H](C)[C@@H](O[C@H]2C[C@@](C)(OC)[C@@H](O)[C@H](C)O2)[C@H](C)[C@@H](O[C@@H]2O[C@H](C)C[C@H](N(C)C)[C@H]2O)[C@](C)(O)C[C@@H](C)/C(=N\OCCNCCCCCCNCc2cc(Cl)cc(Cl)c2O)[C@H](C)[C@@H](O)[C@]1(C)O ?
Output: 4

Task: MIC for CCCCOc1ccc(CNCCCCCCNCCO/N=C2\[C@H](C)C[C@@](C)(O)[C@H](O[C@@H]3O[C@H](C)C[C@H](N(C)C)[C@H]3O)[C@@H](C)[C@H](O[C@H]3C[C@@](C)(OC)[C@@H](O)[C@H](C)O3)[C@@H](C)C(=O)O[C@H](CC)[C@@](C)(O)[C@H](O)[C@H]2C)cc1 ?
Output: 1

Task: MIC for CC[C@H]1OC(=O)[C@H](C)[C@@H](O[C@H]2C[C@@](C)(OC)[C@@H](O)[C@H](C)O2)[C@H](C)[C@@H](O[C@@H]2O[C@H](C)C[C@H](N(C)C)[C@H]2O)[C@](C)(O)C[C@@H](C)/C(=N\OCCNCCCCCCNCc2cccc(Oc3ccccc3)c2)[C@H](C)[C@@H](O)[C@]1(C)O ?
Output: 1
